# System: A549 NSCLC
# assay.remarks: NCI tumour cell line growth inhibition, 48 h
Some compounds, each annotated with its measured TGI.

- compound: "CN1C(c2ccccc2)=CC(=O)C(O)=C(c2ccccc2)S1(=O)=O"
  TGI: "> 100 µM"
- compound: "COCCOC(=O)C1=C(C)NC2=C(C(=O)CC(c3ccccc3OC)C2)C1c1cccc(O)c1 (stereo not drawn)"
  TGI: "> 72.2 µM"
- compound: "N#Cc1[nH]c(=O)n(-c2ccc(Cl)cc2)c1N"
  TGI: "> 10 µM"
- compound: "C(=C\\c1csnn1)/c1cccnc1"
  TGI: "> 100 µM"
- compound: "COc1ccc(O)c(C(=O)c2ccc(C(=O)O[C@@H]3CCCNC[C@H]3NC(=O)c3ccncc3)cc2)c1F"
  TGI: "> 25 µM"
- compound: "O=C(Nc1c(-c2nc3ccccc3[nH]2)sc(=S)n1-c1ccccc1)c1ccccc1"
  TGI: "> 100 µM"
- compound: "CC1C(c2ccc3c(c2)OCO3)c2cc3c(cc2OC1N1CCCC1)OCO3 (stereo not drawn)"
  TGI: "> 100 µM"
- compound: "Cc1c(-c2cc3n(n2)C(c2cccs2)C(C#N)=C(c2ccccc2)N3)c(=O)n(-c2ccccc2)n1C (stereo not drawn)"
  TGI: "> 100 µM"
- compound: "Cn1c(CCC#N)nc2ccc(Br)cc2c1=O"
  TGI: "> 100 µM"
- compound: "CCc1n[nH]c(=O)n1N1C(=O)C2CC=CCC2C1=O (stereo not drawn)"
  TGI: "> 100 µM"
- compound: "Cc1ccc2c(c1)NC(=O)CCSSCCC(=O)N2"
  TGI: "> 100 µM"
- compound: "O=C1Nc2ccccc2C1Cc1ccccc1 (stereo not drawn)"
  TGI: "> 100 µM"
- compound: "CC[C@@]1(O)C(=O)OCc2c1cc1n(c2=O)Cc2c-1nc1ccccc1c2CC[Si](C)(C)C"
  TGI: "7.61 µM"
- compound: "O=C(OCCOCBr)c1ccccc1"
  TGI: "> 100 µM"
- compound: "COc1ccc(C(c2ccc(C(C)C)cc(=O)c2O)c2c(O)cc3oc(-c4ccccc4)cc(=O)c3c2O)cc1 (stereo not drawn)"
  TGI: "> 100 µM"
- compound: "CC(C)=CCc1c(O)cc(/C=C/c2cc(O)c3c(c2)C[C@@H]2C(C)(C)[C@H](O)[C@H](O)C[C@@]2(C)O3)cc1O"
  TGI: "> 10 µM"
- compound: "Cc1cccc(Nc2cn(COCc3ccccc3)c(=O)[nH]c2=O)c1"
  TGI: "> 100 µM"
- compound: "C=C1CC(CCCl)(c2ccccc2)OC1=O (stereo not drawn)"
  TGI: "> 100 µM"
- compound: "O=C1c2ccccc2C(=O)N1c1ccc(S(=O)(=O)Nc2ncccn2)cc1"
  TGI: "> 100 µM"
- compound: "CN1CCN(c2ccc3c4c(cccc24)C(=O)N(CCN2CCN(CCCN4CCN(CCN5C(=O)c6cccc7c(N8CCN(C)CC8)ccc(c67)C5=O)CC4)CC2)C3=O)CC1"
  TGI: "15 µM"
- compound: "Cc1csc2nc(-c3ccc([N+](=O)[O-])cc3)c(/C=N/N=C(N)N)n12"
  TGI: "3.2 µM"
- compound: "COc1ccc2c3c1C(=O)CCC3CO2 (stereo not drawn)"
  TGI: "> 100 µM"
- compound: "ClCCN(CCCl)c1ccc(-n2cnc3c(Cl)ncnc32)cc1"
  TGI: "29.7 µM"
- compound: "O=C1c2ccccc2CC12Cc1cc3c(cc1C2=O)CCC3 (stereo not drawn)"
  TGI: "> 100 µM"
- compound: "N=C(c1ccccc1)N(O)C1CCCCC1"
  TGI: "> 100 µM"
- compound: "CC(=O)/C=C/C1=C(c2cc3ccccc3s2)c2ccccc2CC1"
  TGI: "> 100 µM"
- compound: "COC(=O)CC1(CNC(=O)OCc2ccccc2)OCCO1"
  TGI: "> 100 µM"
- compound: "O=C(O)/C(=C/c1ccccc1[N+](=O)[O-])c1ccccc1"
  TGI: "> 100 µM"
